Provenance of the data: PubChem BioAssay

# test_name: inhibitors of TNFa-induced NFkB p65 translocation, primary screen, imaging, HUVEC, MLSMR starter and 10KST1 sets (AID 438);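 also: compound added about 3h40 before a 20 min TNFalpha stimulation; signal is the nuclear over cytoplasmic p65 intensity ratio per well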
# condition: HUVEC TNFa-induced p65 nuclear translocation; at 2 µM, stronger effect = higher value, 0% TNFa-plus-vehicle, 100% no-TNFa wells
Quick reference: inhibition of the listed items.
readout_name: inhibition (%)

[[record]]
compound = "CCOC(=O)Cc1csc(NC(=O)CSc2nnc(C(C)C)n2CC)n1"
readout_name = "inhibition"
measurement_units = "%"
endpoint_result = -6.2

[[record]]
compound = "Cc1cc(C(=O)Nc2nnc(C(F)(F)F)s2)no1"
readout_name = "inhibition"
measurement_units = "%"
endpoint_result = -4.7

[[record]]
compound = "Cc1cc(C)c2c(n1)nn1c(N3CCN(c4ccccc4C)CC3)cc(C)nc21"
readout_name = "inhibition"
measurement_units = "%"
endpoint_result = -11.8

[[record]]
compound = "O=C(Nc1cc(C(F)(F)F)ccc1Cl)c1cc(C2CC2)on1"
readout_name = "inhibition"
measurement_units = "%"
endpoint_result = -3.9

[[record]]
compound = "Cn1c(C(=O)NCc2cccnc2)cc2sccc21"
readout_name = "inhibition"
measurement_units = "%"
endpoint_result = -4.9

[[record]]
compound = "COc1ccc(NC(=O)Nc2ccccc2C)c(OC)c1"
readout_name = "inhibition"
measurement_units = "%"
endpoint_result = 1.5

[[record]]
compound = "O=C(O)CCC1(C(=O)O)OCCc2ccccc21 (configuration not stated)"
readout_name = "inhibition"
measurement_units = "%"
endpoint_result = 2.9

[[record]]
compound = "O=C(Nc1cccnc1)Nc1ccc(F)c(Cl)c1"
readout_name = "inhibition"
measurement_units = "%"
endpoint_result = 11.8

[[record]]
compound = "O=C(NCc1ccccc1)N[C@@H](Cc1ccccc1)C(=O)O"
readout_name = "inhibition"
measurement_units = "%"
endpoint_result = 6.9

[[record]]
compound = "CCOC(=O)C1CCCN(C(=O)c2cc(=O)c3ccccc3o2)C1 (configuration not stated)"
readout_name = "inhibition"
measurement_units = "%"
endpoint_result = -18.9

[[record]]
compound = "O=C(Nc1nnc(C2CCCCC2)s1)c1cccs1"
readout_name = "inhibition"
measurement_units = "%"
endpoint_result = -8.1

[[record]]
compound = "CCc1nnc(NC(=O)c2ccc(S(=O)(=O)NCC(C)C)cc2)s1"
readout_name = "inhibition"
measurement_units = "%"
endpoint_result = -4.1


###

# test_name: blockers of RIG-like receptor reporter activation – cell-based, Sendai virus stimulus, luciferase, 10K MLSCN set, TLR/RLR signaling modifier project, primary screen (AID 602276);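 also: firefly luciferase from ISG56 promoter only with Renilla not read in this screen; 0% = Sendai virus plus DMSO and 100% = medium plus DMSO without virus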
# condition: HEK293 RL24 IRF3 luciferase reporter, at 10 µM, stronger effect = higher value
readout_name: inhibition (%)

[[record]]
compound = "CCN(CC)C(c1ccc(C)cc1)c1nnnn1C1CCCCC1 (stereo unspecified)"
readout_name = "inhibition"
measurement_units = "%"
endpoint_result = 16.7

[[record]]
compound = "CN1CCc2nc(SCC(=O)Nc3ccc(F)cc3)c(C#N)cc2C1"
readout_name = "inhibition"
measurement_units = "%"
endpoint_result = -24.5

[[record]]
compound = "COc1cccc(C(=O)n2cnnc2N)c1OC"
readout_name = "inhibition"
measurement_units = "%"
endpoint_result = 16.3

[[record]]
compound = "O=C1CC(Cc2ccccc2)C(=O)N1CCc1ccc2c(c1)OCO2 (stereo unspecified)"
readout_name = "inhibition"
measurement_units = "%"
endpoint_result = -0.603

[[record]]
compound = "CCCS(=O)(=O)C(=C1Nc2ccccc2N1)S(=O)(=O)CCC"
readout_name = "inhibition"
measurement_units = "%"
endpoint_result = 12.1

[[record]]
compound = "CCOC(=O)N1CCN(C(=O)CCc2c(C)nc3c(c(C)nn3-c3ccc(C)c(C)c3)c2C)CC1"
readout_name = "inhibition"
measurement_units = "%"
endpoint_result = 20.5

[[record]]
compound = "CNC(=O)NCCN1CCCC1=O"
readout_name = "inhibition"
measurement_units = "%"
endpoint_result = 9.55

[[record]]
compound = "Cc1ccc2cc(CN(CC3CCCO3)S(=O)(=O)c3ccc4c(c3)OCCO4)c(=O)[nH]c2c1C (stereo unspecified)"
readout_name = "inhibition"
measurement_units = "%"
endpoint_result = 3.97

[[record]]
compound = "COc1ccccc1CN(Cc1nc2ccccc2c(=O)[nH]1)C(=O)Nc1ccccc1"
readout_name = "inhibition"
measurement_units = "%"
endpoint_result = 3.14

[[record]]
compound = "CSc1nnc(-c2ccccc2)n1C"
readout_name = "inhibition"
measurement_units = "%"
endpoint_result = 16.8

[[record]]
compound = "C/C(N)=C(/C#N)C(=O)COC(=O)COc1ccc(Cl)cc1"
readout_name = "inhibition"
measurement_units = "%"
endpoint_result = 18.1

